Form field: LD50 (one value per entry).
Experiment: DL50 mouse p.o.
Conditions: in vivo, po, limits of reliability (p : 0.95) in brackets
Excerpt: (1) the limits of reliability (p : 0.95) are given in brackets.
Quick reminder: number only, in mg/kg, skip the unit.

LD50 for CCCCCCCCNC(C)C(O)c1ccc(SC)cc1 (stereo not drawn) ?
970

Others:
LD50 for CCCCNC(C)C(O)c1ccc(SC(C)C)cc1 (stereo not drawn) ?
680

Now the compound CCCCCCNC(C)C(O)c1ccc(SC(C)C)cc1 (stereo not drawn)
1450

Now the compound CCCCCCCCNC(C)C(O)c1ccc(SCC)cc1 (stereo not drawn)
1750
